Provenance of the data: PubChem BioAssay (NCI)

# Tested on: DU-145 prostate
# ASSAY PROCEDURE: NCI tumour cell line growth inhibition, 48 h
MEASURED METRIC: TGI

Solved cases below.
MOLECULE	TGI
NC1=NC2(COC(c3ccccc3)(c3ccccc3)c3ccccc3)OC(COC(c3ccccc3)(c3ccccc3)c3ccccc3)C(O)C2O1 (centres undefined)	> 100 µM
CSc1nncc(-c2cc3c(c(SC)n2)CCCC3)n1	> 100 µM
CN1CCN(c2c(F)cc(NC3=C(Cl)C(=O)c4ncccc4C3=O)cc2F)CC1	26.2 µM
COC(=O)[C@@H]1[C@@H]2NC(=S)N[C@@]1(C)Oc1ccccc12	> 100 µM
Cc1cc(Cl)nc(N(CCNc2ccnc3cc(Cl)ccc23)Cc2ccco2)n1	3.8 µM
Cc1cnc(C(=O)NNc2nc3sc4c(c3c(=O)[nH]2)C(C)CCC4)cn1 (centres undefined)	80.7 µM

Look at this molecule and give its reported TGI. CN(C)c1ccc(-c2cc(-c3ccc(Nc4nc(Nc5ccc(Cl)cc5)nc(Nc5ccc(Cl)cc5)n4)cc3)nc(N)c2C#N)cc1 > 100 µM

Reported TGI, molecule Cn1c(CNc2ccc(-c3n[nH]c(=S)n3C)cc2)n[nH]c1=S : ____ > 100 µM

What measured TGI goes with CCCCCCCCCCCCCCCCCCNc1ccn(C2OC(COP(=O)(O)OCC3OC(n4ccc(N)nc4=O)C(O)C3O)C(O)C2O)c(=O)n1 (centres undefined) ? > 100 µM

---

# Tested on: A498 renal
# ASSAY PROCEDURE: NCI tumour cell line growth inhibition, 48 h
MEASURED METRIC: TGI

// below: answered molecules
MOLECULE	TGI
COc1ccc(/C(Nc2ccccc2)=C(\CCl)c2ccccc2)cc1OC	> 100 µM
COc1ccccc1Oc1nccc(-c2c(-c3ccc(F)cc3)ncn2C2CCNCC2)n1	> 25 µM
Cc1cc(Cl)nc(N(CCNc2ccnc3cc(Cl)ccc23)Cc2ccco2)n1	5.51 µM
CCOC(=O)c1cn(CC)c(=O)n2c1nc1ccccc12	> 100 µM
O=C(COc1ccc(/C=C2\Oc3ccccc3C2=O)cc1)Nc1nc2ccccc2s1	94.5 µM
O=C(O)CN(CCN(CC(=O)O)CC(=O)O)CC(=O)O.[Mn+2]	> 100 µM

Lab request: please report TGI under test system A498 renal for C[C@@H](CC(=O)OCc1ccccc1)OC1OC(COC(=O)C(C)(C)C)C(OC(=O)C(C)(C)C)C(OC(=O)C(C)(C)C)C1OC(=O)C(C)(C)C (stereo partly specified) > 100 µM

Quick check: TGI on A498 renal, item O=C(CCc1cc(O)cc(O)c1)NCCc1cc(O)cc(OCc2ccccc2)c1 ? > 100 µM

Item: CCOC(=O)/C(=C\c1cccc(C)c1)C(C)=O Test system: A498 renal Read-out: TGI Value: ? 52 µM

Kindly state the measured TGI obtained for CN=c1sc2c(n1C)C(=O)c1ccccc1C2=O with A498 renal. 30.1 µM

Form field: TGI recorded for COC(=O)[C@H](Cc1ccccc1)NC(=O)c1ccc(CNC(=O)/C=C/c2csc(-c3ccccc3)n2)cc1 with A498 renal (enter value) 34.5 µM

---

# Test system: NCI/ADR-RES ovarian
# ASSAY PROCEDURE: NCI tumour cell line growth inhibition, 48 h
MEASURED METRIC: TGI

Recorded results for 3 molecules are shown here.
MOLECULE	TGI
CCSCC1CC(O)(c2ccccc2)C(c2ccccc2)C(c2ccc(F)cc2)O1 (stereo not given)	6.67 µM
CC1(C)O[C@@H]2[C@@H](COC(C)(C)O[C@H]2C2SCCCS2)O1	> 100 µM
CCO/C=C1\SC(=S)N(c2ccc(OCC)cc2)C1=O	> 100 µM

Fill in: TGI of COc1cc(/C=C/c2cc(/C=C/c3ccc(O)c(OC)c3)n(C(=O)c3ccccc3Br)n2)ccc1O is ___ > 100 µM

# get_value(readout='TGI', item= CN(C)c1ccc(-c2cc(-c3ccc(Nc4nc(Nc5ccc(Cl)cc5)nc(Nc5ccc(Cl)cc5)n4)cc3)nc(N)c2C#N)cc1 ) > 100 µM

---

TGI by entry:
# Test system: K-562 leukemia
# ASSAY PROCEDURE: NCI tumour cell line growth inhibition, 48 h
Where a SMILES comes first, the peptide text is derived from it. [ ]: non-standard residue; d: D form. The star is where a group is joined. ξ: configuration not given here. ξF = NC(Cc1ccccc1)C(=O)O; Cbz = O=C(OCc1ccccc1)*

Here is how some compounds turned out for TGI.
COMPOUND	ASSAYED SYSTEM	MEASURED METRIC	RECORDED RESULT
CC(C)[C@@H]1CC[C@]2(CO2)[C@@H]2C(=O)OCC(C(=O)O)=C[C@H]21	K-562 leukemia	TGI	> 100 µM
c1cc(-c2ccc(-c3ccsc3)s2)cs1	K-562 leukemia	TGI	> 100 µM

Report TGI for COc1ccc(-c2oc3cc(-c4cc5oc(-c6ccc(OC)cc6)c(-c6ccc(OC)cc6)c5cc4OC)c(OC)cc3c2-c2ccc(OC)cc2)cc1 please. > 100 µM

Would you kindly share the measured TGI for CCOC(=O)c1ccc(N=Nc2ccc(N(CCC#N)CCC#N)cc2C)cc1 ? > 100 µM

I am curious: what TGI value has been reported for CCCCCC/C=C\CCCCCCCCC(=O)c1cccc(OC)c1OC ? > 100 µM

What does the data say about its TGI? Entry: COc1ccc2ccccc2c1C1=NC(C)(C)CO1 > 100 µM

Fill in: TGI of COC1(OC)CCc2c(sc3ncnc(Nc4cccc(Br)c4)c23)C1 is ___ > 100 µM

Which value of TGI has been reported for COC(=O)c1cc(S(=O)(=O)NC2=NCC(C)NN2)c(S)cc1Cl (configuration not stated) in the records? > 100 µM

Record request: TGI value, item COC(=O)[C@@]12OC[C@]34C([C@@H](O)C1O)[C@@]1(C)CC(=O)C(OC(=O)CC(C)C(F)(F)F)=C(C)C1C[C@H]3OC(=O)[C@H](O)[C@H]42 (some centres not stated) > 62.5 µM

Quick check: TGI of COCCN(Cc1ccc(F)cc1)c1ccc(CO)c(Cl)c1 ? > 100 µM

Please report the recorded TGI for COc1cc(-c2nccc3[nH]c(-c4ccc5cc[nH]c5c4)nc23)cc(OC)c1OC . 2.28 µM

Which value of TGI has been reported for COc1cc(C2c3cc4c(cc3OC(NN)C2C)OCO4)cc(OC)c1O (configuration not stated) in the records? 12.6 µM

Entry CCN(CC)c1ccc2nc3ccc(=[N+](CC)CC)cc-3oc2c1 : reported TGI = ? > 100 µM

Recorded TGI of CCc1cccc(CC)c1NC(=O)/C(Cl)=C(/Cl)C(=O)O , please. > 94.9 µM

Need TGI of CCN(CC)CCNc1ccc([N+](=O)[O-])c2nc3ccc(OC)cc3c(NCCN(CC)CC)c12 , thanks. 1.38 µM

# input compound: COc1cc(C(=O)/C=C/c2cccc(Nc3ccnc4cc(Cl)ccc34)c2)cc(OC)c1OC ; wanted: its TGI 3.23 µM

Fill blank: measured TGI of the compound O=C(CSCC(=O)N/N=C/c1cccc(O)c1)N/N=C/c1cccc(O)c1 is ____. > 100 µM

Which TGI is reported for this compound? CSC(=O)/C=C1\SS/C(=C\C(=O)SC)S1 > 100 µM

Which value of TGI has been reported for O=C1c2cc(O)c(O)cc2O[C@H](c2ccc(O)c(O)c2)[C@H]1O in the records? > 100 µM

TGI for COc1ccc(-c2c(C3=NCCCN3)nnn2-c2ccccc2)cc1 ? > 100 µM

What value of measured TGI is listed for CCOC(=O)CNC(=O)C(Cc1ccccc1)NC(=O)OCc1ccccc1 (configuration not stated) (Cbz-[ξF]-Gly-OEt) ? > 100 µM

---

Parameter: TGI. Scope: all listed entries.
# Test system: UACC-257 melanoma
# ASSAY PROCEDURE: NCI tumour cell line growth inhibition, 48 h

MOLECULE	TGI
Cc1cccc(Cn2cc(CO)c3cnccc32)c1	> 100 µM
Cc1ccc(S(=O)(=O)NCCCCC(N)C(=O)O)cc1 (stereo unspecified)	> 100 µM
COCCN(CCOC)c1nc(-c2ccccc2)nc2ccccc12	36.6 µM
Nc1nccc(-c2c(-c3ccc(F)cc3)nn3cc(C(F)(F)F)ccc23)n1	> 25 µM
O=C(COc1ccc(/C=C2\Oc3ccccc3C2=O)cc1)Nc1nc2ccccc2s1	45.2 µM

Fill blank: measured TGI of the molecule COc1ccc(CCCCNCc2cccc(CNCCCCc3ccc(OC)cc3)c2)cc1 is ____. > 19.7 µM

---

# Tested on: IGROV1 ovarian
# ASSAY PROCEDURE: NCI tumour cell line growth inhibition, 48 h
Overview of reported TGI across a group of molecules:

MOLECULE	TGI
Cc1ccc(S(=O)(=O)OC2CC(C(C)(C)C)CCC2c2ccccc2)cc1 (stereo not given)	> 100 µM
O=[N+]([O-])c1ccc(-c2ccc(C3=Nn4c(CNc5ccccc5Cl)nnc4SC3)o2)cc1	> 100 µM

Sample COCCN(Cc1ccc(F)cc1)c1ccc(CO)c(Cl)c1 — what was its TGI? 3.7 µM
